- Tested on: paternal UBE3A-YFP
- Protocol Notes: paternal UBE3A-YFP unsilencing, high-content imaging in mouse primary neurons (Ube3a m+/pYFP)
- Type: cell-based
- Stated Conditions: Mus musculus, Neuron; 72 h, highest concentration with at least 90% neurons alive, mean ± SEM; read-out: EMAX (% patUBE3A-YFP+)
Result Type: Emax (%)
Give the value in % but do not write % after it.

{"columns": ["Compound", "Measure Unit", "Emax"],
 "data": [
  ["C[C@H](C(=O)Nc1cc(C2CC2)[nH]n1)c1ccc(N2CCCC2=O)cc1 [(S)-PHA533533]", "%", 80],
  ["O=C(Cc1ccc2ccccc2c1)Nc1cc(C2CC2)[nH]n1 [Compound 2]", "%", 71.4],
  ["CC(C(=O)Nc1cc(C2CC2)[nH]n1)c1ccc(N2CCCC2)cc1 (racemic) [Compound (±)-4]", "%", 65.7],
  ["CC(C(=O)Nc1cc(C2CC2)[nH]n1)c1ccc(N2CCC(O)C2=O)cc1 [Compound (S,R)-5]", "%", 58.3],
  ["O=C(Cc1ccc(-c2ccccc2)cc1)Nc1cc(C2CC2)[nH]n1 [Compound 3]", "%", 43.5]
]}

Please turn your attention to the following entry.
Problem: Return Emax (reported value) for this compound: CC[C@@]1(O)C(=O)OCc2c1cc1n(c2=O)Cc2cc3c(CN(C)C)c(O)ccc3nc2-1 [Topotecan, reference compound]
Result: 66.3

---

- Protocol Notes: cytotoxicity (% viable DAPI/NeuN neurons vs DMSO) in mouse primary neurons
- Format: cell-based
- Stated Conditions: primary cortical neurons from E15.5 mouse embryos, mean ± SEM, n = 3
Threshold 600 nM: CC50 at 72 h strictly smaller gives yes, otherwise no.

{"columns": ["Molecule", "Label"],
 "data": [
  ["CC(C(=O)Nc1cc(C2CC2)[nH]n1)c1ccc(N2CCCC2)cc1 (racemic) [Compound (±)-4]", "no"],
  ["CC[C@@]1(O)C(=O)OCc2c1cc1n(c2=O)Cc2cc3c(CN(C)C)c(O)ccc3nc2-1 [Topotecan, reference compound]", "no"],
  ["O=C(Cc1ccc2ccccc2c1)Nc1cc(C2CC2)[nH]n1", "yes"],
  ["O=C(Cc1ccc(-c2ccccc2)cc1)Nc1cc(C2CC2)[nH]n1", "yes"]
]}

Note: attention shifts to another entry.
Problem: Check if CC50 at 72 h falls below 600 nM for CC(C(=O)Nc1cc(C2CC2)[nH]n1)c1ccc(N2CCC(O)C2=O)cc1 [Compound (S,R)-5] .
Result: no

Origin of measurements: paper PMC11231141
